- protocolNotes: UV-visible titration of receptor with N-methylguanidine hydrochloride in distilled water
- Assay type: binding
- statedConditions: in water, correlated from Ks; read-out: Kd of complex with N-methylguanidinium
- Protocol: UV-visible absorbance and fluorescence were examined. UV spectra were recorded on a Hewlett-Packard 8452A diode array UV-vis spectrophotometer, using a cell of 1 cm pathlength. Fluorescence spectra were recorded on a Photon Technology International QM-1 Steady state Fluorescence system. […] The fitted parameters: IRG, the fluorescence intensity of a receptor complex with aguest at a given concentration, Ks, the stability constant. […]
pKd: −log10 of the molar value. Where a name gives a salt, the structure may show the parent alone.

[
  {
    "molecule": "O=C(O)c1ccc2c(n1)-c1nc3nc4c(cc3cc1CC2)CCc1cc2c(nc1-4)-c1nc3ncccc3cc1CC2 [Compound IA, potassium salt]",
    "pKd": 5.00
  }
]
